Molecular target: recombinant ICL cloned from C. albicans ATCC10231 (Candida albicans)
Experiment: ICL inhibition assay (glyoxylate phenylhydrazone formation, A324 nm)
Settings: purified recombinant ICL; n = 3
observed.property: pIC50
// pIC50 is dimensionless: -log10 of concentration (M)

Form field: reported pIC50 of COc1ccc(C(=O)O[C@H]2C=COC=C3[C@@H](O)[C@]45SSSS[C@H](C(=O)N4[C@@H]32)N(C)C5=O)cc1Oc1cc(C=O)ccc1O 5.32

Can you check O=C(O)CC[N+](=O)[O-] [3-Nitropropionate, 3-nitropropionate, reference compound] next? 4.66

---

Field: MIC. Provide a value for each of the compounds that follow.
Tested on: C. albicans SC5314
Experiment: In vitro growth assay (MIC) in YNB broth
Type: cell-based, Candida albicans
Details: Candida albicans, SC5314, 72 h, YNB with 2% glucose, 28 °C, read-out: MIC
Method: Following phagocytosis by macrophages, C. albicans undergoes a metabolic shift from glycolysis to the glyoxylate cycle, enabling cells to utilize C2 carbon sources. […] The antifungal activity of secoemestrin C (1), dethiosecoemestrin (2), emestrin (3), and emestrin B (4) was evaluated against C. albicans strains (SC5314, ATCC10231, ATCC10259, ATCC11006, and ATCC18804) using a previously documented procedure. […]

Please provide the recorded MIC for COc1ccc2cc1Oc1cc(ccc1O)C(O)C13SSSC4(C(=O)N1C)C(O)C1=COC=CC(OC2=O)C1N4C3=O (centres unmarked) , tested on C. albicans SC5314. > 128 mg/L

And what about the compound COc1ccc(C(=O)O[C@H]2C=COC=C3C=C4C(=O)N(C)C(=O)C(=O)N4[C@@H]32)cc1Oc1cc(C=O)ccc1O ? > 128 mg/L

Request: C[C@@H]1[C@H](O)[C@@H](C)/C=C/C=C/C=C/C=C/C=C/C=C/C=C/[C@H](O[C@@H]2O[C@H](C)[C@@H](O)[C@H](N)[C@@H]2O)C[C@@H]2O[C@](O)(C[C@@H](O)C[C@@H](O)[C@H](O)CC[C@@H](O)C[C@@H](O)CC(=O)O[C@H]1C)C[C@H](O)[C@H]2C(=O)O [Amphotericin B, amphotericin B, reference compound] 0.5 mg/L

Try COc1ccc2cc1Oc1cc(ccc1O)C(O)C13SSC4(C(=O)N1C)C(O)C1=COC=CC(OC2=O)C1N4C3=O (centres unmarked) next. > 128 mg/L

Likewise for COc1ccc(C(=O)O[C@H]2C=COC=C3[C@@H](O)[C@]45SSSS[C@H](C(=O)N4[C@@H]32)N(C)C5=O)cc1Oc1cc(C=O)ccc1O ? > 128 mg/L

---

Target: recombinant ICL cloned from C. albicans ATCC10231 (Candida albicans, UniProt Q9P8Q7)
Sequence (Q9P8Q7 whole entry): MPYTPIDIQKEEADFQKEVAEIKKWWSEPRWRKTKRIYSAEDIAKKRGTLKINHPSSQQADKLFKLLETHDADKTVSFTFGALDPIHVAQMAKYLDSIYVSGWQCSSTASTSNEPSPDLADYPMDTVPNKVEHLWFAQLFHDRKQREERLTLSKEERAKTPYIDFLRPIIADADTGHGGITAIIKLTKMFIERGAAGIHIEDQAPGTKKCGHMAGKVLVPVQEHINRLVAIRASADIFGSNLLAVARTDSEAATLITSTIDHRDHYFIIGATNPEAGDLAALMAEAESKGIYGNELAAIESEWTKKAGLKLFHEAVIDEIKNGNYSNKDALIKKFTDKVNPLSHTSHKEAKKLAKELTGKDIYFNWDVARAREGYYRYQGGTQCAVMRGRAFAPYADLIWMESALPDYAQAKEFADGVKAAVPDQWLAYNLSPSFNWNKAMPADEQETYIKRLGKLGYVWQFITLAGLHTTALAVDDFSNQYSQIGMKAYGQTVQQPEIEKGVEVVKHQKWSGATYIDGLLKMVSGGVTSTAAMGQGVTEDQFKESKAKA
Experiment: ICL inhibition assay (glyoxylate phenylhydrazone formation, A324 nm)
Conditions: purified recombinant ICL; n = 3
For each entry below, report its IC50 value.

Lab note: need IC50 with recombinant ICL cloned from C. albicans ATCC10231 (Candida albicans, UniProt Q9P8Q7) for entry COc1ccc2cc1Oc1cc(ccc1O)C(O)C13SSSC4(C(=O)N1C)C(O)C1=COC=CC(OC2=O)C1N4C3=O (stereo not drawn) [Emestrin B (4), emestrin B] , please look it up. > 203 µM

Please do the same for COc1ccc(C(=O)O[C@H]2C=COC=C3C=C4C(=O)N(C)C(=O)C(=O)N4[C@@H]32)cc1Oc1cc(C=O)ccc1O [Dethiosecoemestrin (2), dethiosecoemestrin] as well. > 241 µM

Another molecule to look at: COc1ccc2cc1Oc1cc(ccc1O)C(O)C13SSC4(C(=O)N1C)C(O)C1=COC=CC(OC2=O)C1N4C3=O (stereo not drawn) [Emestrin (3), emestrin] > 214 µM

Every entry's value here was drawn from paper PMC8224697.
